target: EGFR L858R T790M in NCI-H1975 cell line (Homo sapiens, UniProt P00533, L858R/T790M); construct: host or cells: NCI-H1975; assay: NCI-H1975 pEGFR AlphaLISA assay; format: cell-based; conditions: NCI-H1975 cells (EGFR L858R T790M), p-EGFR (Tyr1068), 4-5 hours incubation; read-out: Ext pEGFR H1975 GMean IC50 (nM) Protocol: @Pharmaron AlphaLISA (Num)
Sequence (P00533 25-1210 T790M/L858R): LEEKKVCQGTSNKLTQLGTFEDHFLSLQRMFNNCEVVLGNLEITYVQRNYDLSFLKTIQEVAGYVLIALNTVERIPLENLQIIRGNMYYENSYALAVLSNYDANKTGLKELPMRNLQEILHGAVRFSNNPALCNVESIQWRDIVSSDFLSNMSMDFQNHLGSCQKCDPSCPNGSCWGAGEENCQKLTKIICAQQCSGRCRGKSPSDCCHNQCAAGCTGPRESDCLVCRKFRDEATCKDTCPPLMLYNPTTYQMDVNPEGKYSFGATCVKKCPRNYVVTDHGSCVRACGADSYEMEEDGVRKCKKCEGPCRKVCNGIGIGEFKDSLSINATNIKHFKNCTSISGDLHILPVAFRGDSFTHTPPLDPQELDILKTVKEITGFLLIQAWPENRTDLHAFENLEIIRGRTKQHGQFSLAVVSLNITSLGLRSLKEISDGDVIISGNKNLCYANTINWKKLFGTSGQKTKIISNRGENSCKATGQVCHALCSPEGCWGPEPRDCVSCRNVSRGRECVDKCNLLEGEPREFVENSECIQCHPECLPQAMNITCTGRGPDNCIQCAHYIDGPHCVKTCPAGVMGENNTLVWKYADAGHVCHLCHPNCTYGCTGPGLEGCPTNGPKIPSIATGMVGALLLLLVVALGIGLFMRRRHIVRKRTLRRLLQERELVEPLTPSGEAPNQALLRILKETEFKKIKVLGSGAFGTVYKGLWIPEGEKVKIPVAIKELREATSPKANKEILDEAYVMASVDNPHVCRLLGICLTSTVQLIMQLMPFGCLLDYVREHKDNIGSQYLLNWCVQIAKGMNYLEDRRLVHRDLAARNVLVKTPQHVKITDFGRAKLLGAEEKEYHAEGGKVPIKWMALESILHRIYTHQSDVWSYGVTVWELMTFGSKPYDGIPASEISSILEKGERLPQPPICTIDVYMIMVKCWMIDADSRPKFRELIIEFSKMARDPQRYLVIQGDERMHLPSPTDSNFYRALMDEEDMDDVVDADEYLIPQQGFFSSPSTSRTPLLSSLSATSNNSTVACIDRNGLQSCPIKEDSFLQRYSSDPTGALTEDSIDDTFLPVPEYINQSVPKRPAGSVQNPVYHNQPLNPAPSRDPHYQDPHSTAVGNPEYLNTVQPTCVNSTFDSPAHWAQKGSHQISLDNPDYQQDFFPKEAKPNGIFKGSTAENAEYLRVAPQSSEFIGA
property.label: IC50

Example cases with answers are listed next.
compound | property.label | meas.value
CC(=O)N1CC(C)(COc2ccc(C(C)C)c3cc(Nc4ccnc(N5CC[C@@H](O)[C@@](C)(F)C5)n4)ncc23)C1 [Example 7] | IC50 | 30 to 50 nM
CNC(=O)c1ncc(C(C)C)c2cc(Nc3ccnc(N4C[C@@H](F)[C@@H](O)C(C)(C)C4)n3)ncc12 (single isomer, unassigned) [Example 82] | IC50 | > 50 nM

Now let's try a different one.
Input: Tell me reported IC50 for CCO[C@H]1C[C@H](NC(=O)c2ncc(C(C)C)c3cc(Nc4ccnc(N5CC[C@@H](O)[C@@](C)(F)C5)n4)ncc23)C1 [Example 84] , tested with EGFR L858R T790M in NCI-H1975 cell line (Homo sapiens, UniProt P00533, L858R/T790M).
Output: 20 to 30 nM

====

molecular target: EGFR (L858R T790M C797S) (Homo sapiens, UniProt P00533, C797S/L858R/T790M); construct: purchased SignalChem E10-122VG; experiment: Biochemical EGFR inhibition assay (Caliper mobility shift), EGFR LRTMCS mutant; settings: LRTMCS (PH) IC50 (nM) @ 1 mM ATP (Num)
Sequence (P00533 25-1210 T790M/C797S/L858R): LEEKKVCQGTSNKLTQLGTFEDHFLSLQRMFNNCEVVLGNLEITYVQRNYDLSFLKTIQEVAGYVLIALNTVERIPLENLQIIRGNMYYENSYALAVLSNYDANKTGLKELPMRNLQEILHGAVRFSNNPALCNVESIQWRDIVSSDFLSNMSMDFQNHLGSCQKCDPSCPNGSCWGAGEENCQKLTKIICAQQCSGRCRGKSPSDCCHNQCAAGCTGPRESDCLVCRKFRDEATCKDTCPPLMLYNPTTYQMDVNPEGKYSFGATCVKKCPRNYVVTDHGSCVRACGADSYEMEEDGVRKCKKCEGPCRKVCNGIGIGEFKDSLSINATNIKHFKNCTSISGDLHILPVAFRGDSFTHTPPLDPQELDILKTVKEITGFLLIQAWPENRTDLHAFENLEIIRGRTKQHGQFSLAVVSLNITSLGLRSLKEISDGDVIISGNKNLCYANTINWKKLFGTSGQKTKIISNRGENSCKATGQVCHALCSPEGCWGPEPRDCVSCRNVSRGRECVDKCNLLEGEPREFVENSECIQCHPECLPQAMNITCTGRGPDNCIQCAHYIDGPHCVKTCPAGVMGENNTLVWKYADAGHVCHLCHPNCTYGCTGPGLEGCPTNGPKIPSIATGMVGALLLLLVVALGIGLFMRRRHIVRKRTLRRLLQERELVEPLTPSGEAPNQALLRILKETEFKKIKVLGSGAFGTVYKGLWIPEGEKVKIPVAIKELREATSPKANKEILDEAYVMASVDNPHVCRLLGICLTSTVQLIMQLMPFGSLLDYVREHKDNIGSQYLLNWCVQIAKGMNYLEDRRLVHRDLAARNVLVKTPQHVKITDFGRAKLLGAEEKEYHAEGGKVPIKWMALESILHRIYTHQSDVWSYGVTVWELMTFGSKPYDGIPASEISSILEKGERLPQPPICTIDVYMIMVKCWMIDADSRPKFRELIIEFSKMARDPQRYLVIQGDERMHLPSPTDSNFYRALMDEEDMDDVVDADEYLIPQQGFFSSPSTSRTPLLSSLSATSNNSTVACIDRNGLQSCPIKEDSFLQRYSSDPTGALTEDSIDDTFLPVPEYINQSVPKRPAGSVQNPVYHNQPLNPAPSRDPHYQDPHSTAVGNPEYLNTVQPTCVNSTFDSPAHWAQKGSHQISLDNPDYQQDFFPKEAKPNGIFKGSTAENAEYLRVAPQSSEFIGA
IC50 overview

compound | IC50
CC(C)c1ccc(OCCn2ccnc2)c2cnc(Nc3ccnc(N4CC[C@](C)(O)[C@H](F)C4)n3)cc12 | < 15 nM
[2H]C([2H])([2H])O[C@H]1CCN(c2nccc(Nc3cc4c(C(C)C)ccc(OCCn5cnnc5)c4cn3)n2)C[C@H]1F | 15 to 20 nM
CO[C@@H]1CCN(c2nccc(Nc3cc4c(C(C)C)ccc(NCC5CNC[C@@H]5S(C)(=O)=O)c4cn3)n2)C[C@@H]1F (single isomer, unassigned) | < 15 nM
CC(C)c1cnc(Nc2cnn(C)c2)c2cnc(Nc3ccnc(N4CC[C@@H](O)[C@@](C)(F)C4)n3)cc12 | 20 to 30 nM
CNc1ncc(C(C)C)c2cc(Nc3ccnc(N4CC[C@@H](O)[C@@H](F)C4)n3)ncc12 | 30 to 100 nM
COCCNC(=O)c1ncc(C(C)C)c2cc(Nc3ccnc(N4CC[C@@H](O)[C@@](C)(F)C4)n3)ncc12 | 20 to 30 nM

Input: Tell me reported IC50 for Cc1nccn1CCOc1ccc(C(C)C)c2cc(Nc3ccnc(N4CC[C@@](C)(O)[C@@H](F)C4)n3)ncc12 , tested with EGFR (L858R T790M C797S) (Homo sapiens, UniProt P00533, C797S/L858R/T790M).
Output: < 15 nM

====

molecular target: EGFR L858R T790M in NCI-H1975 cell line (Homo sapiens, UniProt P00533, L858R/T790M); construct: host or cells: NCI-H1975; assay: NCI-H1975 pEGFR AlphaLISA assay; type: cell-based; details: NCI-H1975 cells (EGFR L858R T790M), p-EGFR (Tyr1068), 4-5 hours incubation; read-out: Ext pEGFR H1975 GMean IC50 (nM) Protocol: @Pharmaron AlphaLISA (Num)
property.label: IC50

Example cases with answers are listed next.
compound | IC50
CC(C)c1ccc(OCCn2cnnc2)c2cnc(Nc3ccnc(N4CC[C@H]5COC[C@H]54)n3)cc12 (single isomer, unassigned) [Example 51] | > 50 nM
CC(C)c1ccc(OCCc2cnnn2C)c2cnc(Nc3ccnc(N4CC[C@](C)(O)[C@H](F)C4)n3)cc12 | 30 to 50 nM
[2H]C([2H])([2H])O[C@@H]1CCN(c2nccc(Nc3cc4c(C(C)C)ccc(OCCn5cnnc5)c4cn3)n2)C[C@@H]1F | > 50 nM

Input: Please report the recorded IC50 for CC(C)c1ccc(OC[C@@H]2COC(=O)N2C)c2cnc(Nc3ccnc(N4CC[C@@H](OCCN(C)C)[C@@H](F)C4)n3)cc12 .
Output: > 50 nM

Input: Please report the recorded IC50 for CO[C@H]1CCN(c2nccc(Nc3cc4c(C(C)C)ccc(OCCCNC(C)=O)c4cn3)n2)C[C@@H]1O (single isomer, unassigned) .
Output: 20 to 30 nM

Input: Please report the recorded IC50 for [2H]C([2H])([2H])O[C@H]1CCN(c2nccc(Nc3cc4c(C(C)C)ccc(OC[C@H]5CCC(=O)N5C)c4cn3)n2)C[C@H]1F .
Output: > 50 nM

Input: Please report the recorded IC50 for CO[C@H]1CCN(c2nccc(Nc3cc4c(C(C)C)ccc(OCCn5cnnc5)c4cn3)n2)C[C@H]1F .
Output: 20 to 30 nM

Input: Please report the recorded IC50 for CC(C)c1ccc(OC[C@H]2CCC(=O)N2C)c2cnc(Nc3ccnc(N4CC[C@](C)(O)[C@H](F)C4)n3)cc12 .
Output: > 50 nM

Input: Please report the recorded IC50 for CO[C@@H]1CCN(c2nccc(Nc3cc4c(C(C)C)ncc(OCCn5cnnc5)c4cn3)n2)C[C@@H]1F .
Output: > 50 nM

Input: Please report the recorded IC50 for CC(C)c1ccc(OC[C@@H]2CC(=O)N(C)C2)c2cnc(Nc3ccnc(N4CC[C@@H](O)[C@@](C)(F)C4)n3)cc12 (single isomer, unassigned) [Example 21] .
Output: < 10 nM
